Where do the numbers come from? From PubChem BioAssay AID463187.

- EXPERIMENTAL SYSTEM: Tyrosine-protein kinase HCK (Homo sapiens) (UniProt P08631)
- Sequence (P08631 whole entry, looked up): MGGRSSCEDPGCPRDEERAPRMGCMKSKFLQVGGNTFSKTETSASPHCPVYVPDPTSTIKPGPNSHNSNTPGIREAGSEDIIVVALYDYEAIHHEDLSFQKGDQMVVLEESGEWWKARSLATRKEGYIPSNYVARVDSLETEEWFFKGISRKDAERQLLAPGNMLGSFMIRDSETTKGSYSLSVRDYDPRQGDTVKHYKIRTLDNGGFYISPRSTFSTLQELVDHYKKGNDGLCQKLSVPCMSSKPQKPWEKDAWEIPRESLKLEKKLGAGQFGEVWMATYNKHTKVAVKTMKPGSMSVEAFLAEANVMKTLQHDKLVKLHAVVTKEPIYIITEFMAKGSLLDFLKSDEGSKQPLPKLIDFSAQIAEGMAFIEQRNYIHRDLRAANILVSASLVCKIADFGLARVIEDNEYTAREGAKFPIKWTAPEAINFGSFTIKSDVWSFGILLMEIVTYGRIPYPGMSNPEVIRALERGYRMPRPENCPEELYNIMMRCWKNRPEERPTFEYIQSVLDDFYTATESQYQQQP
- METHOD DESCRIPTION: inhibitors of Nef-activated human Hck kinase, primary screen, biochemical, Z-Lyte FRET, 384-well, Hck-YEEI (AID 463187);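 further: 0% = DMSO with Hck plus Nef and 100% = Hck alone without Nef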
- EXPERIMENTAL CONDITIONS: Recombinant Hck-YEEI plus Nef, Z-Lyte FRET kinase assay; at 20 µM; hits give high values
In all, about 220,000 compounds went through this assay and about 1,500 (0.68%) were called active. The sample holds actives, similar compounds and a random draw of the others, so the mix is not that of the screen.
MEASUREMENT NAME: inhibition

Consider the following illustrative entries.
COMPOUND	DATA VALUE
O=C(NCc1csc(-c2cccs2)n1)C1CC1	-1.15% (inactive)
Cc1ccc(CN(C)CC(=O)Nc2cccc([N+](=O)[O-])c2)o1	-2.63% (inactive)
Cc1cnc(C(=O)N2CCCC(C(=O)c3ccc(C(F)(F)F)cc3)C2)cn1 (stereo not drawn)	17.7% (inactive)
O=C(O)CCn1cc(/C=C/C(=O)c2ccc(Cl)cc2)c(-c2cccc(Br)c2)n1	55% (active)
COCc1cc(C)nc2sc(C(=O)NC3CCCCC3)c(N)c12	1.3% (inactive)
CC1CN(S(=O)(=O)c2ccccc2)C(C)CN1S(=O)(=O)c1ccccc1 (stereo not drawn)	2.18% (inactive)

Record Cc1ncc(CC(=O)n2cc(C(=O)c3cc(Cl)ccc3O)cn2)s1 has Tyrosine-protein kinase HCK (Homo sapiens) (UniProt P08631) inhibition equal to 78.7% (active)

Record N#Cc1c(-c2ccc(F)cc2)cc(C2CC2)nc1SCC(=O)c1cccs1 has Tyrosine-protein kinase HCK (Homo sapiens) (UniProt P08631) inhibition equal to 3.07% (inactive)

Record CCN(CC)c1ccc2oc(=O)c(C)nc2c1 has Tyrosine-protein kinase HCK (Homo sapiens) (UniProt P08631) inhibition equal to -14.5% (inactive)

Record O=C1CSC(=S)N1/N=C/c1ccc(O)c([N+](=O)[O-])c1 has Tyrosine-protein kinase HCK (Homo sapiens) (UniProt P08631) inhibition equal to 118% (active)

Record O=C(NNC(=O)c1cccnc1)Nc1ccccc1 has Tyrosine-protein kinase HCK (Homo sapiens) (UniProt P08631) inhibition equal to -0.546% (inactive)

---

- EXPERIMENTAL SYSTEM: Tyrosine-protein kinase HCK (Homo sapiens) (UniProt P08631)
- METHOD DESCRIPTION: inhibitors of Nef-activated human Hck kinase, primary screen, biochemical, Z-Lyte FRET, 384-well, Hck-YEEI (AID 463187);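 further: 0% = DMSO with Hck plus Nef and 100% = Hck alone without Nef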
- EXPERIMENTAL CONDITIONS: Recombinant Hck-YEEI plus Nef, Z-Lyte FRET kinase assay; at 20 µM; hits give high values
Hit rate of the full screen: of about 220,000 compounds, about 1,500 (0.68%) were called active. The sample as a whole holds a higher share of actives than the screen did.
Would you mind labelling by inhibition? At or over 10% is yes, under is no.

COMPOUND	EXPERIMENTAL SYSTEM	CAT
Cc1ccc(N2C(=O)CC(Nc3cccc4ccccc34)C2=O)cc1 (centres undefined)	Tyrosine-protein kinase HCK (Homo sapiens) (UniProt P08631)	yes
COc1ccc(N2CCN(c3ccc([N+](=O)[O-])cc3Cl)CC2)cc1	Tyrosine-protein kinase HCK (Homo sapiens) (UniProt P08631)	no
O=C(NC1CCCCCC1)c1cccnc1Sc1ccc(Cl)cc1	Tyrosine-protein kinase HCK (Homo sapiens) (UniProt P08631)	no
COc1ccc(C(=O)Nc2ccc(S(=O)(=O)Nc3onc(C)c3C)cc2)cc1OC	Tyrosine-protein kinase HCK (Homo sapiens) (UniProt P08631)	no

Ask | Quick check, inhibition >= 10%? Cc1cc(/C=N/Nc2ccc([N+](=O)[O-])cn2)c(C)n1-c1cccc(C(=O)O)c1
Reply | yes

Ask | Quick check, inhibition >= 10%? COc1ccc(CCNC(=O)COC(=O)/C=C/c2cccs2)cc1OC
Reply | yes

Ask | Quick check, inhibition >= 10%? O=C(NCc1ccccc1)C1CCCN(c2nc3ccsc3c(=O)s2)C1 (centres undefined)
Reply | yes

Ask | Quick check, inhibition >= 10%? COc1ccc(N=Cc2c(O)[nH]c3ccccc23)cc1OC
Reply | yes

Ask | Quick check, inhibition >= 10%? CCOc1ccc(-c2nc(N)ncc2-c2ccccc2OC)c(O)c1
Reply | yes

Ask | Quick check, inhibition >= 10%? O=C(O)C1C2C=CC(O2)C1C(=O)NCCc1cccc(Cl)c1 (centres undefined)
Reply | yes

Ask | Quick check, inhibition >= 10%? COC(=O)C1=CN(Cc2ccc(OC)c(OC)c2)C=C(C(=O)OC)C1c1cccs1
Reply | yes

Ask | Quick check, inhibition >= 10%? COc1ccccc1N=Cc1c(O)c2ccccc2oc1=O
Reply | no

Ask | Quick check, inhibition >= 10%? COc1ccc(C(=O)n2nc(-c3ccc(C)cc3)nc2N)cc1OC
Reply | no

Ask | Quick check, inhibition >= 10%? Cc1cc(/C=N/n2cnnc2)c(C)n1-c1cccc(C(=O)O)c1
Reply | no

Ask | Quick check, inhibition >= 10%? CCC1=NN2C(=N)/C(=C/c3cc(C)n(-c4ccccc4)c3C)C(=O)N=C2S1
Reply | yes

Ask | Quick check, inhibition >= 10%? Cc1ccc(C)c(NC(=S)NCC(c2cccnc2)N2CCOCC2)c1 (centres undefined)
Reply | no

Ask | Quick check, inhibition >= 10%? CCOc1ccccc1Oc1cn[nH]c1-c1ccc(OC)cc1O
Reply | yes

Ask | Quick check, inhibition >= 10%? O=C1Oc2ccccc2C(=O)/C1=C/c1ccccc1O
Reply | yes

Ask | Quick check, inhibition >= 10%? COc1ccc(CCNCC(O)Cn2ccc3ccccc32)cc1OC (centres undefined)
Reply | yes

Ask | Quick check, inhibition >= 10%? O=C(N/N=C/c1ccco1)c1ccc(C(=O)N/N=C/c2ccco2)o1
Reply | no

Ask | Quick check, inhibition >= 10%? C=CCn1c(=N)n(CC(O)COc2ccc(OC)cc2)c2ccccc21 (centres undefined)
Reply | yes

Ask | Quick check, inhibition >= 10%? O=C(NNC(=O)c1ccc(Cl)cc1Cl)c1cccs1
Reply | yes

Ask | Quick check, inhibition >= 10%? CCn1c(SCC(=O)Nc2ccc(S(=O)(=O)Nc3onc(C)c3C)cc2)nnc1-c1ccccc1
Reply | no

---

- EXPERIMENTAL SYSTEM: Tyrosine-protein kinase HCK (Homo sapiens) (UniProt P08631)
- METHOD DESCRIPTION: inhibitors of Nef-activated human Hck kinase, primary screen, biochemical, Z-Lyte FRET, 384-well, Hck-YEEI (AID 463187);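 further: 0% = DMSO with Hck plus Nef and 100% = Hck alone without Nef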
- EXPERIMENTAL CONDITIONS: Recombinant Hck-YEEI plus Nef, Z-Lyte FRET kinase assay; at 20 µM; hits give high values
Out of some 220,000 compounds screened, about 1,500 (0.68%) were called active. This excerpt belongs to a sample that is enriched for actives.
MEASUREMENT NAME: inhibition (%)
Give your result in % as a bare value.

Consider the following illustrative entries.
MOLECULE	UNIT NAME	inhibition
Cc1cccc(/C(N)=N/OC(=O)c2ccccc2Cl)c1	%	5.79
Oc1c(Cl)cc(Cl)c(Cl)c1Cc1c(O)c(Cl)cc(Cl)c1Cl	%	58.4
O=C(NCc1cccs1)c1cc(-c2ccccn2)nc2ccc(Br)cc12	%	-19.4

Record Cc1ccc(-c2nc(SCC(=O)Nc3ccccc3OC(F)F)c3c(C)c(C(=O)O)sc3n2)cc1 has Tyrosine-protein kinase HCK (Homo sapiens) (UniProt P08631) inhibition equal to 98.6

Record CC1CCCN(CC(O)COc2ccc3c(c2)OCO3)C1 (stereo not given) has Tyrosine-protein kinase HCK (Homo sapiens) (UniProt P08631) inhibition equal to 18.9

Record O=C(Nc1ccncc1)c1cc(-c2ccccn2)nc2ccc(Br)cc12 has Tyrosine-protein kinase HCK (Homo sapiens) (UniProt P08631) inhibition equal to 81.4

Record Cc1nc2ccccc2n1CC(=O)N/N=C/c1cccnc1 has Tyrosine-protein kinase HCK (Homo sapiens) (UniProt P08631) inhibition equal to 24.3

Record N#Cc1c(-c2cccs2)nc(SCC(=O)c2ccc(Br)cc2)[nH]c1=O has Tyrosine-protein kinase HCK (Homo sapiens) (UniProt P08631) inhibition equal to 72.7

Record Clc1ccc2c(c1)C1=C(C(c3ccncc3)O2)C(c2ccc(Br)cc2)n2ncnc2N1 (stereo not given) has Tyrosine-protein kinase HCK (Homo sapiens) (UniProt P08631) inhibition equal to 83.6

Record CC(C)NC(=O)/C(C#N)=C\c1ccc(N(C)C)c(Br)c1 has Tyrosine-protein kinase HCK (Homo sapiens) (UniProt P08631) inhibition equal to 7.25

Record CCOC(=O)c1ccc[n+](CC(=O)Nc2ccccc2OC(F)F)c1 has Tyrosine-protein kinase HCK (Homo sapiens) (UniProt P08631) inhibition equal to 3.79

Record O=C(CSc1cccc2cccnc12)N/N=C/c1cccnc1 has Tyrosine-protein kinase HCK (Homo sapiens) (UniProt P08631) inhibition equal to 51.3

Record c1ccc(-c2cc3c(NCC4COc5ccccc5O4)ncnc3s2)cc1 (stereo not given) has Tyrosine-protein kinase HCK (Homo sapiens) (UniProt P08631) inhibition equal to 5.9
